# maps each entry to its IC50
TESTED SYSTEM: hDHODH (Homo sapiens)
Sequence (Q02127 whole entry): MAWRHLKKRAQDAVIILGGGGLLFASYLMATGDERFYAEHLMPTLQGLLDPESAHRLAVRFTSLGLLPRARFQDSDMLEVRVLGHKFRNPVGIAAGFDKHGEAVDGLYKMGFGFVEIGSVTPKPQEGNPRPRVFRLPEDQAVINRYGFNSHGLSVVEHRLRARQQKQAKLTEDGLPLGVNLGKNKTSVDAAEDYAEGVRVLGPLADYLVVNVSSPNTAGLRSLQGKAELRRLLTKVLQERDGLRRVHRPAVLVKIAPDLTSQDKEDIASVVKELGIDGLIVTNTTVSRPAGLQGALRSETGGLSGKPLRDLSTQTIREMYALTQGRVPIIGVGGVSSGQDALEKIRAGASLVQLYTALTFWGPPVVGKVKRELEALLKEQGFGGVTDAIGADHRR
ASSAY METHOD TEXT: DHODH enzyme inhibition assay, hDHODH
Type: biochemical
CONDITION SET: Table 4, IC50 class; read-out: hDHODH
MEASURED PROPERTY: IC50

smiles_string=Cc1cc(Nc2ccc(C#N)c(C(F)(F)F)c2)n2ncnc2n1 measured_property=IC50 result="2 to 10 µM"
smiles_string=Cc1cc(Nc2ccc(C(F)(F)F)c(F)c2)n2ncnc2n1 measured_property=IC50 result="> 10 µM"
smiles_string=CCc1ccc(Nc2cc(C)nc3ncnn23)cc1 measured_property=IC50 result="> 10 µM"
smiles_string=Cc1cc(Nc2ccc3[nH]c(C(F)(F)F)nc3c2)n2ncnc2n1 measured_property=IC50 result="> 10 µM"
smiles_string=Cc1cc(Nc2ccc(C)c(F)c2)n2ncnc2n1 measured_property=IC50 result="> 10 µM"
smiles_string=Cc1cc(Nc2cc(F)cc(F)c2)n2ncnc2n1 measured_property=IC50 result="> 10 µM"

====

The following compounds are shown together with reported pIC50 values.
TESTED SYSTEM: PbDHODH (Plasmodium berghei)
Sequence (A0A509AEH5 entry or part of it): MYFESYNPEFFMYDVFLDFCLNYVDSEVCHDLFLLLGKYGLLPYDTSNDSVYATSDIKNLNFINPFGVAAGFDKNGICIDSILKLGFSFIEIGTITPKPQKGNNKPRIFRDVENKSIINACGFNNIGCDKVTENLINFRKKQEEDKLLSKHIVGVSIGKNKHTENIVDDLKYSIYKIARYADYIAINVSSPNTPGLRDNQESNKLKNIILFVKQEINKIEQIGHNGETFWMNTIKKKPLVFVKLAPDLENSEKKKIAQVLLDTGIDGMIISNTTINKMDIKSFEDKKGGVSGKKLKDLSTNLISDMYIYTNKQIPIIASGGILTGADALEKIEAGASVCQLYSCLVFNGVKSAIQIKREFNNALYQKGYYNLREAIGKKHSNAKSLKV
ASSAY METHOD TEXT: DHODH enzyme inhibition assay, PbDHODH
Format: biochemical, P. berghei
CONDITION SET: PbDHODH, Table 4, IC50 class
pIC50: −log10 of the molar value.
MEASURED PROPERTY: pIC50

compound=CCCCCCc1ccc(Nc2cc(C)nc3ncnn23)cc1 result="< 5.00"
compound=Cc1cc(Nc2cccc(F)c2F)n2ncnc2n1 result="< 5.00"
compound=Cc1cc(Nc2ccc(C(C)(C)C)cc2)n2ncnc2n1 result="> 5.70"
compound=CCCCc1ccc(Nc2cc(C)nc3ncnn23)cc1 result="5.00 to 5.70"
compound=Cc1cc(Nc2cc(F)ccc2F)n2ncnc2n1 result="< 5.00"
compound=Cc1cc(Nc2ccc(C(C)C)cc2)n2ncnc2n1 result="> 5.70"
compound=CCCCCCCCc1ccc(Nc2cc(C)nc3ncnn23)cc1 result="< 5.00"
compound=Cc1ccc(Nc2cc(C)nc3ncnn23)cc1 result="< 5.00"
compound=Cc1cc(Nc2ccccc2Cl)n2ncnc2n1 result="< 5.00"
compound=CCCCCc1ccc(Nc2cc(C)nc3ncnn23)cc1 result="< 5.00"
compound=Cc1cc(Nc2ccc3c(c2)OCO3)n2ncnc2n1 result="< 5.00"
compound=Cc1cc(Nc2c(F)c(F)cc(F)c2F)n2ncnc2n1 result="< 5.00"
compound=Cc1cc(Nc2ccc([N+](=O)[O-])cc2)n2ncnc2n1 result="5.00 to 5.70"
compound=Cc1cc(Nc2ccc(F)cc2)n2ncnc2n1 result="< 5.00"
compound=Cc1cc(Nc2cc(F)c(F)cc2F)n2ncnc2n1 result="< 5.00"
compound=Cc1cc(Nc2c(F)cccc2F)n2ncnc2n1 result="< 5.00"
compound=Cc1cc(Nc2ccccc2C)n2ncnc2n1 result="< 5.00"
compound=C=Cc1ccc(Nc2cc(C)nc3ncnn23)cc1 result="5.00 to 5.70"
compound="Cc1cc(Nc2ccc(OC(F)F)cc2)n2ncnc2n1 [drawing 44]" result="< 5.00"
compound=Cc1cc(Nc2ccc(Br)cc2)n2ncnc2n1 result="< 5.00"
compound=CCc1ccc(Nc2cc(C)nc3ncnn23)cc1 result="5.00 to 5.70"
compound=Cc1cc(Nc2c(F)c(F)c(F)c(F)c2F)n2ncnc2n1 result="< 5.00"
compound=Cc1cc(Nc2ccc(C#N)c(C(F)(F)F)c2)n2ncnc2n1 result="< 5.00"
compound=Cc1cc(Nc2ccc(F)c(F)c2)n2ncnc2n1 result="5.00 to 5.70"
compound=CCCCCCCc1ccc(Nc2cc(C)nc3ncnn23)cc1 result="< 5.00"
compound=Cc1cc(Nc2ccccc2C#N)n2ncnc2n1 result="< 5.00"
compound=Cc1cccc(Nc2cc(C)nc3ncnn23)c1 result="< 5.00"

====

Entries annotated with measured pIC50
TESTED SYSTEM: PfDHODH (Plasmodium falciparum, UniProt Q08210)
ASSAY METHOD TEXT: biochemical
CONDITION SET: Table 4, IC50 class; read-out: PfDHODH
pIC50: −log10 of the molar value.
MEASURED PROPERTY: pIC50

smiles_string=Cc1cc(Nc2cccc(F)c2F)n2ncnc2n1 measured_property=pIC50 result="< 5.00"
smiles_string=Cc1cc(Nc2ccc(Br)c(C(F)(F)F)c2)n2ncnc2n1 measured_property=pIC50 result="> 5.70"
smiles_string=Cc1cc(Nc2ccc3[nH]c(C(F)(F)F)nc3c2)n2ncnc2n1 measured_property=pIC50 result="< 5.00"
smiles_string=CCCCCc1ccc(Nc2cc(C)nc3ncnn23)cc1 measured_property=pIC50 result="> 5.70"
smiles_string=Cc1cc(Nc2ccc(F)c(F)c2F)n2ncnc2n1 measured_property=pIC50 result="< 5.00"
smiles_string=Cc1cc(Nc2c(F)cccc2F)n2ncnc2n1 measured_property=pIC50 result="< 5.00"

====

TESTED SYSTEM: PfDHODH (Plasmodium falciparum, UniProt Q08210)
ASSAY METHOD TEXT: biochemical
CONDITION SET: Table 4, IC50 class; read-out: PfDHODH
IC50 listing for selected compounds.
MEASURED PROPERTY: IC50

compound=Cc1cc(Nc2ccc(Cl)cc2)n2ncnc2n1 measured_property=IC50 result="< 2000 nM"
compound=CCCCc1ccc(Nc2cc(C)nc3ncnn23)cc1 measured_property=IC50 result="< 2000 nM"
compound=Cc1cc(Nc2ccc(OC(F)(F)F)cc2)n2ncnc2n1 measured_property=IC50 result="< 2000 nM"
compound=Cc1cc(Nc2ccc3c(c2)OCO3)n2ncnc2n1 measured_property=IC50 result="< 2000 nM"
compound=Cc1cc(Nc2ccc(F)c(F)c2)n2ncnc2n1 measured_property=IC50 result="2000 to 10000 nM"
compound=Cc1cc(Nc2cc(F)cc(F)c2)n2ncnc2n1 measured_property=IC50 result="2000 to 10000 nM"
compound=Cc1cc(Nc2cc(F)ccc2F)n2ncnc2n1 measured_property=IC50 result="> 10000 nM"
compound=Cc1cc(Nc2ccc(C)c(C)c2)n2ncnc2n1 measured_property=IC50 result="< 2000 nM"
compound=Cc1cc(Nc2ccc(C(C)C)cc2)n2ncnc2n1 measured_property=IC50 result="< 2000 nM"
compound=CCCCCCCc1ccc(Nc2cc(C)nc3ncnn23)cc1 measured_property=IC50 result="> 10000 nM"
compound=Cc1cc(Nc2c(F)c(F)cc(F)c2F)n2ncnc2n1 measured_property=IC50 result="> 10000 nM"
compound=CCCCCCCCc1ccc(Nc2cc(C)nc3ncnn23)cc1 measured_property=IC50 result="> 10000 nM"
compound=Cc1cc(Nc2ccc(Cc3ccccc3)cc2)n2ncnc2n1 measured_property=IC50 result="< 2000 nM"
compound=COc1ccc(Nc2cc(C)nc3ncnn23)cc1 measured_property=IC50 result="< 2000 nM"
compound=Cc1cc(Nc2ccc(Cl)c(C(F)(F)F)c2)n2ncnc2n1 measured_property=IC50 result="< 2000 nM"
compound=Cc1cc(Nc2ccc(N(C)C)cc2)n2ncnc2n1 measured_property=IC50 result="< 2000 nM"
compound=Cc1cc(Nc2cc(F)c(F)cc2F)n2ncnc2n1 measured_property=IC50 result="> 10000 nM"
compound="Cc1cc(Nc2ccc(F)c(C)c2)n2ncnc2n1 [drawing 39]" measured_property=IC50 result="2000 to 10000 nM"
compound=Cc1cc(Nc2ccc(F)cc2)n2ncnc2n1 measured_property=IC50 result="> 10000 nM"
compound=CCc1ccc(Nc2cc(C)nc3ncnn23)cc1 measured_property=IC50 result="< 2000 nM"
compound=Cc1cc(Nc2c(F)c(F)c(F)c(F)c2F)n2ncnc2n1 measured_property=IC50 result="> 10000 nM"
compound=Cc1cccc(Nc2cc(C)nc3ncnn23)c1 measured_property=IC50 result="2000 to 10000 nM"
compound=Cc1cc(Nc2ccc(-c3ccccc3)cc2)n2ncnc2n1 measured_property=IC50 result="2000 to 10000 nM"
compound=Cc1cc(Nc2ccc(C(F)(F)F)c(F)c2)n2ncnc2n1 measured_property=IC50 result="< 2000 nM"
compound=Cc1cc(Nc2cc(C(F)(F)F)cc(C(F)(F)F)c2)n2ncnc2n1 measured_property=IC50 result="> 10000 nM"
compound=Cc1cc(Nc2cccc(C(F)(F)F)c2)n2ncnc2n1 measured_property=IC50 result="> 10000 nM"

====

ASSAY METHOD TEXT: Pharmacokinetic analysis after single oral dose in mice
Format: in vivo
CONDITION SET: mice, oral, 50 mg/kg
MEASURED PROPERTY: Cmax (µM)

molecule="Cc1cc(Nc2ccc(C(F)(F)F)cc2)n2ncnc2n1 [drawing 22]" unit_of_measure=µM numeric_value=27.6

====

TESTED SYSTEM: PfDHODH (Plasmodium falciparum)
Sequence (Q08210 24-569): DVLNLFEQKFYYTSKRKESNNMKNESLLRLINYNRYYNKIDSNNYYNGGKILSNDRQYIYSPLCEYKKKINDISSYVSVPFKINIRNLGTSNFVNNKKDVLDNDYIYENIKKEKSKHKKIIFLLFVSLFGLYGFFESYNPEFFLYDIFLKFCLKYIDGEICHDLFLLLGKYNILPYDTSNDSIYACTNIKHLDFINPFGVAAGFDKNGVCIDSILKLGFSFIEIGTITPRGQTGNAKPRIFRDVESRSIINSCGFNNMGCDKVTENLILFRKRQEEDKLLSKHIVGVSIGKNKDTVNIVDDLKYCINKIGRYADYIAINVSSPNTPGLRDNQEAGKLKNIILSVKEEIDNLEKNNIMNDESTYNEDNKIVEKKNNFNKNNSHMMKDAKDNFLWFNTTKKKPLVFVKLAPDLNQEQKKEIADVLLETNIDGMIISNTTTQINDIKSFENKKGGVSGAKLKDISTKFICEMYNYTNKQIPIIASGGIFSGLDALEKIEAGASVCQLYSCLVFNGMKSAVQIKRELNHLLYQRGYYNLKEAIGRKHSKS
ASSAY METHOD TEXT: biochemical
CONDITION SET: PfDHODH IC50, Table 5
Description: Briefly, the assay solution contained 100 mM HEPES, pH 8.0, 150 mM NaCl, 10% glycerol, 0.1% Triton X-100, 20 micro molar COQD (coenzyme QD), 200 micro molar L-dihydroorotate, and 120 micro molar DCIP. Reactions are initiated by addition of enzyme to a final concentration in the range of about […] to about 50 nM while maintaining the temperature of a circulating water bath at 25° C. […]
MEASURED PROPERTY: IC50 (nM)

compound="Cc1cc(Nc2cccc(Cl)c2)n2ncnc2n1 [drawing 116]" numeric_value=566
